settings: in water, 313.15 K
Observed property: solubility (mole fraction)
// no unit string in output, number only

For the compound Nc1nc(NC2CC2)c2ncn([C@H]3C=C[C@@H](CO)C3)c2n1 , give its measured solubility (mole fraction) value. 0.000547

* * *

settings: in isopropanol, 318.15 K
Observed property: solubility (mole fraction)

For the compound Nc1nc(NC2CC2)c2ncn([C@H]3C=C[C@@H](CO)C3)c2n1 , give its measured solubility (mole fraction) value. 0.0111

* * *

details: in acetone, 303.15 K
Observed property: solubility (mole fraction)
// no unit string in output, number only

For the molecule Nc1nc(NC2CC2)c2ncn([C@H]3C=C[C@@H](CO)C3)c2n1 , give its measured solubility (mole fraction) value. 0.00169

* * *

conditions: in n-propanol, 308.15 K
Observed property: solubility (mole fraction)
// no unit string in output, number only

For the compound Nc1nc(NC2CC2)c2ncn([C@H]3C=C[C@@H](CO)C3)c2n1 , give its measured solubility (mole fraction) value. 0.0159

* * *

settings: in ethyl acetate, 313.15 K
Observed property: solubility (mole fraction)
// no unit string in output, number only

For the compound Nc1nc(NC2CC2)c2ncn([C@H]3C=C[C@@H](CO)C3)c2n1 , give its measured solubility (mole fraction) value. 0.00147

* * *

settings: in acetone, 313.15 K
Observed property: solubility (mole fraction)
// no unit string in output, number only

For the molecule Nc1nc(NC2CC2)c2ncn([C@H]3C=C[C@@H](CO)C3)c2n1 , give its measured solubility (mole fraction) value. 0.00205

* * *

settings: in isobutanol, 313.15 K
Observed property: solubility (mole fraction)

For the compound Nc1nc(NC2CC2)c2ncn([C@H]3C=C[C@@H](CO)C3)c2n1 , give its measured solubility (mole fraction) value. 0.0144

* * *

settings: in ethyl acetate, 278.15 K
Observed property: solubility (mole fraction)
// no unit string in output, number only

For the compound Nc1nc(NC2CC2)c2ncn([C@H]3C=C[C@@H](CO)C3)c2n1 , give its measured solubility (mole fraction) value. 0.000631

* * *

details: in acetone, 318.15 K
Observed property: solubility (mole fraction)
// no unit string in output, number only

For the compound Nc1nc(NC2CC2)c2ncn([C@H]3C=C[C@@H](CO)C3)c2n1 , give its measured solubility (mole fraction) value. 0.00225

* * *

settings: in isopropanol, 313.15 K
Observed property: solubility (mole fraction)
// no unit string in output, number only

For the molecule Nc1nc(NC2CC2)c2ncn([C@H]3C=C[C@@H](CO)C3)c2n1 , give its measured solubility (mole fraction) value. 0.0096

* * *

conditions: in n-butanol, 293.15 K
Observed property: solubility (mole fraction)
// no unit string in output, number only

For the molecule Nc1nc(NC2CC2)c2ncn([C@H]3C=C[C@@H](CO)C3)c2n1 , give its measured solubility (mole fraction) value. 0.0103

* * *

conditions: in methyl acetate, 318.15 K
Observed property: solubility (mole fraction)
// no unit string in output, number only

For the molecule Nc1nc(NC2CC2)c2ncn([C@H]3C=C[C@@H](CO)C3)c2n1 , give its measured solubility (mole fraction) value. 0.0023

* * *

conditions: in methanol, 313.15 K
Observed property: solubility (mole fraction)

For the molecule Nc1nc(NC2CC2)c2ncn([C@H]3C=C[C@@H](CO)C3)c2n1 , give its measured solubility (mole fraction) value. 0.0181

* * *

details: in sec-butanol, 278.15 K
Observed property: solubility (mole fraction)
// no unit string in output, number only

For the molecule Nc1nc(NC2CC2)c2ncn([C@H]3C=C[C@@H](CO)C3)c2n1 , give its measured solubility (mole fraction) value. 0.00768

* * *

conditions: in sec-butanol, 318.15 K
Observed property: solubility (mole fraction)
// no unit string in output, number only

For the molecule Nc1nc(NC2CC2)c2ncn([C@H]3C=C[C@@H](CO)C3)c2n1 , give its measured solubility (mole fraction) value. 0.0197

* * *

conditions: in water, 293.15 K
Observed property: solubility (mole fraction)
// no unit string in output, number only

For the molecule Nc1nc(NC2CC2)c2ncn([C@H]3C=C[C@@H](CO)C3)c2n1 , give its measured solubility (mole fraction) value. 0.000334

* * *

details: in n-propanol, 323.15 K
Observed property: solubility (mole fraction)
// no unit string in output, number only

For the molecule Nc1nc(NC2CC2)c2ncn([C@H]3C=C[C@@H](CO)C3)c2n1 , give its measured solubility (mole fraction) value. 0.024

* * *

details: in sec-butanol, 303.15 K
Observed property: solubility (mole fraction)
// no unit string in output, number only

For the compound Nc1nc(NC2CC2)c2ncn([C@H]3C=C[C@@H](CO)C3)c2n1 , give its measured solubility (mole fraction) value. 0.0134

* * *

details: in ethanol, 283.15 K
Observed property: solubility (mole fraction)

For the molecule Nc1nc(NC2CC2)c2ncn([C@H]3C=C[C@@H](CO)C3)c2n1 , give its measured solubility (mole fraction) value. 0.00651

* * *

conditions: in ethyl acetate, 323.15 K
Observed property: solubility (mole fraction)
// no unit string in output, number only

For the compound Nc1nc(NC2CC2)c2ncn([C@H]3C=C[C@@H](CO)C3)c2n1 , give its measured solubility (mole fraction) value. 0.00192

* * *

settings: in methyl acetate, 283.15 K
Observed property: solubility (mole fraction)
// no unit string in output, number only

For the molecule Nc1nc(NC2CC2)c2ncn([C@H]3C=C[C@@H](CO)C3)c2n1 , give its measured solubility (mole fraction) value. 0.00101

* * *

details: in n-butanol, 288.15 K
Observed property: solubility (mole fraction)
// no unit string in output, number only

For the compound Nc1nc(NC2CC2)c2ncn([C@H]3C=C[C@@H](CO)C3)c2n1 , give its measured solubility (mole fraction) value. 0.0089

* * *

details: in methanol, 298.15 K
Observed property: solubility (mole fraction)
// no unit string in output, number only

For the compound Nc1nc(NC2CC2)c2ncn([C@H]3C=C[C@@H](CO)C3)c2n1 , give its measured solubility (mole fraction) value. 0.0109

* * *

conditions: in isobutanol, 303.15 K
Observed property: solubility (mole fraction)
// no unit string in output, number only

For the molecule Nc1nc(NC2CC2)c2ncn([C@H]3C=C[C@@H](CO)C3)c2n1 , give its measured solubility (mole fraction) value. 0.0121

* * *

conditions: in n-butanol, 298.15 K
Observed property: solubility (mole fraction)
// no unit string in output, number only

For the compound Nc1nc(NC2CC2)c2ncn([C@H]3C=C[C@@H](CO)C3)c2n1 , give its measured solubility (mole fraction) value. 0.0117

* * *

conditions: in n-butanol, 283.15 K
Observed property: solubility (mole fraction)
// no unit string in output, number only

For the compound Nc1nc(NC2CC2)c2ncn([C@H]3C=C[C@@H](CO)C3)c2n1 , give its measured solubility (mole fraction) value. 0.00798

* * *

conditions: in methyl acetate, 288.15 K
Observed property: solubility (mole fraction)

For the compound Nc1nc(NC2CC2)c2ncn([C@H]3C=C[C@@H](CO)C3)c2n1 , give its measured solubility (mole fraction) value. 0.0011

* * *

conditions: in ethyl acetate, 303.15 K
Observed property: solubility (mole fraction)

For the molecule Nc1nc(NC2CC2)c2ncn([C@H]3C=C[C@@H](CO)C3)c2n1 , give its measured solubility (mole fraction) value. 0.00112

* * *

details: in isopropanol, 283.15 K
Observed property: solubility (mole fraction)
// no unit string in output, number only

For the molecule Nc1nc(NC2CC2)c2ncn([C@H]3C=C[C@@H](CO)C3)c2n1 , give its measured solubility (mole fraction) value. 0.00483

* * *

details: in isopropanol, 288.15 K
Observed property: solubility (mole fraction)
// no unit string in output, number only

For the molecule Nc1nc(NC2CC2)c2ncn([C@H]3C=C[C@@H](CO)C3)c2n1 , give its measured solubility (mole fraction) value. 0.00534

* * *

conditions: in sec-butanol, 293.15 K
Observed property: solubility (mole fraction)
// no unit string in output, number only

For the molecule Nc1nc(NC2CC2)c2ncn([C@H]3C=C[C@@H](CO)C3)c2n1 , give its measured solubility (mole fraction) value. 0.0104

* * *

conditions: in isopropanol, 308.15 K
Observed property: solubility (mole fraction)
// no unit string in output, number only

For the compound Nc1nc(NC2CC2)c2ncn([C@H]3C=C[C@@H](CO)C3)c2n1 , give its measured solubility (mole fraction) value. 0.00855

* * *

conditions: in ethyl acetate, 308.15 K
Observed property: solubility (mole fraction)
// no unit string in output, number only

For the molecule Nc1nc(NC2CC2)c2ncn([C@H]3C=C[C@@H](CO)C3)c2n1 , give its measured solubility (mole fraction) value. 0.00127

* * *

settings: in methyl acetate, 303.15 K
Observed property: solubility (mole fraction)
// no unit string in output, number only

For the compound Nc1nc(NC2CC2)c2ncn([C@H]3C=C[C@@H](CO)C3)c2n1 , give its measured solubility (mole fraction) value. 0.00156

Taken from BigSolDB 2.1.
